Attribution: a melting point compilation (Tetko et al.; mined from patent text by program, amines drawn as free bases though some values may be those of a salt)

Quick reference for melting point among some compounds

Consider the worked cases shown below.
O=C(O)CCCCCOc1cccc(CCCCCCOc2ccc3c(c2CCCc2ccccc2)OCCC3=O)c1CCC(=O)O = 97 to 98 °C
CC(=O)N1CCC(C2=C(C#N)C(c3cccc(C#N)c3Br)c3c[nH]nc3N2)CC1 (configuration not stated) = > 280 °C
Cc1cc(C2CC(C)(C)CC(C)(C)C2=O)ccc1F (configuration not stated) = 63 to 64 °C
Cc1cc(F)ccc1-c1nc(NCCO)nc2c1ccc(=O)n2-c1ccccc1F = 120 to 124 °C
CSCS[C@H](C)[C@](O)(Cn1cncn1)c1ccc(Cl)cc1 = 163 to 164 °C

Next up:
Find the recorded melting point belonging to O=C(NN1CCNC1=O)Sc1ccccc1 and report it. 154 to 159 °C

* * *

Quick reference for melting point among some compounds

Consider the worked cases shown below.
COc1ccc(S(=O)(=O)N2C(=O)C(c3ccccc3O)(N3CCC[C@H]3C(=O)N(C)C)c3cc(Cl)ccc32)c(OC)c1 (some centres undefined) = 143 °C
CCN(c1nc(C)cc(C(=O)c2ncc[nH]2)n1)c1ccc(C(C)C)cc1Br = 75 to 76 °C
CN1CCN(c2cccc(Nc3ccc(-c4ccoc4)cc3N)c2)CC1 = 129 to 130 °C

Find the recorded melting point belonging to CCC(CSC(=S)N(C)C)[N+](=O)[O-] (centres undefined) and report it. 23 °C

Find the recorded melting point belonging to N#CC(C(=O)c1ccc([N+](=O)[O-])cc1)=C1CCCCN1 and report it. 182 °C

* * *

READOUT_LABEL: melting point

Consider the worked cases shown below.
CCOC(=O)COc1ccc(SCCc2cccc3sc(-c4ccc(C(F)(F)F)cc4)nc23)cc1C = 97 to 100 °C
COC(=O)c1ccc2c(c1)Sc1ccccc1NC2 = 149 to 150 °C

Find the recorded melting point belonging to Cc1nnc2n1-c1ccc(Cl)cc1C(c1ccccc1F)=CC2 and report it. 223 to 225 °C

* * *

Quick reference for melting point among some molecules

Consider the worked cases shown below.
O=C1CCC(c2c[nH]c3cc(F)ccc23)CC1 = 102 to 105 °C
Cc1cccc(NC(=O)NC(C)C(=O)N(c2ccccc2)c2ccccc2)c1 (racemic) = 82 °C
CCOC(=O)C(Cc1ccc(C#N)cc1)(NC(C)=O)C(=O)OCC = 160 to 163 °C

Find the recorded melting point belonging to N#Cc1ccc(CC2CC3CCC(C2)N3c2ccccc2)c2ccccc12 (stereo not given) and report it. 103 to 104 °C

Find the recorded melting point belonging to CCCCCCCCCCCCC(=O)c1cn(CCCC(=O)O)c2ccccc12 and report it. 76 to 78 °C

* * *

READOUT_LABEL: melting point

Consider the worked cases shown below.
Cc1ccc(-n2c(-c3ccccc3)ccc2-c2ccccc2)cc1 = 207 to 208 °C
CNS(=O)(=O)c1cn(C)c2cc(C(F)(F)F)ccc2c1=O = 218 to 219 °C

Next up:
Find the recorded melting point belonging to COC(=O)c1ccc(-c2nc(C)no2)s1 and report it. 154 to 156 °C

* * *

Quick reference for melting point among some compounds

Consider the worked cases shown below.
NCc1ccc(-c2cnc(N3CCN(C4CC4)CC3)nc2)cc1 = 150 to 152 °C
ON=Cc1cn2c(n1)COc1ccccc1-2 = 232 to 233 °C
CC(C)=CC(=O)On1cc(Cl)cn1 = 71 °C

Find the recorded melting point belonging to CC(=O)Nc1nc(CCc2ccc(CO)cc2)cs1 and report it. 162 to 165 °C
